- System: TNF-α production in THP-1 cells
- assay.procedure: TNF-α Production Assay in THP-1 Cells (LPS stimulated)
- Format: cell-based
- applied.conditions: Homo sapiens, THP-1, 24 h
assay.metric: log10 of IC50 (log10 of the value in µM)
Scale type: logarithmic (base 10). Underlying IC50 unit: µM.

query: Recorded log10 of IC50 for CC(C)(O)c1cc2nn([C@H]3CC[C@H](N4CCN(CCNc5cc(F)c([C@H]6CCC(=O)NC6=O)c(F)c5)CC4)CC3)cc2cc1NC(=O)c1ccc2cc(C#N)cnn12 with TNF-α production in THP-1 cells, please?
result: -1.52

query: Recorded log10 of IC50 for Cc1nc(C2CCC(=O)NC2=O)ccc1N1CCC(N2CCN([C@H]3CC[C@H](n4cc5cc(NC(=O)c6ccc7cc(C#N)cnn67)c(C(C)(C)O)cc5n4)CC3)CC2)CC1 (stereo partly shown) with TNF-α production in THP-1 cells, please?
result: -1.68

query: Recorded log10 of IC50 for COC[C@H]1CN(CC2CN(c3cc(F)c([C@H]4CCC(=O)NC4=O)c(F)c3)C2)CCN1[C@H]1CC[C@H](n2cc3cc(NC(=O)c4ccc5cc(C#N)cnn45)c(C(C)(C)O)cc3n2)CC1 with TNF-α production in THP-1 cells, please?
result: -1.38

query: Recorded log10 of IC50 for COC[C@H]1CN([C@H]2CC[C@H](n3cc4cc(NC(=O)c5ccc6cc(C#N)cnn56)c(C(C)(C)O)cc4n3)CC2)CCN1C(=O)C1CN(c2cc(F)c([C@H]3CCC(=O)NC3=O)c(F)c2)C1 with TNF-α production in THP-1 cells, please?
result: -1.92

query: Recorded log10 of IC50 for COC[C@H]1CN([C@H]2CC[C@H](n3cc4cc(NC(=O)c5ccc6cc(C#N)cnn56)c(C(C)(C)O)cc4n3)CC2)CCN1CCc1cc(F)c([C@H]2CCC(=O)NC2=O)c(F)c1 with TNF-α production in THP-1 cells, please?
result: -1.59

query: Recorded log10 of IC50 for CC(C)(O)c1cc2nn([C@H]3CC[C@H](N4CCN(C(=O)CNc5cc(F)c([C@H]6CCC(=O)NC6=O)c(F)c5)CC4)CC3)cc2cc1NC(=O)c1ccc2cc(C#N)cnn12 with TNF-α production in THP-1 cells, please?
result: -1.70

query: Recorded log10 of IC50 for C[C@H]1CN(C(=O)C2CN(c3cc(F)c([C@H]4CCC(=O)NC4=O)c(F)c3)C2)CCN1[C@H]1CC[C@H](n2cc3cc(NC(=O)c4ccc5cc(C#N)cnn45)c(C(C)(C)O)cc3n2)CC1 with TNF-α production in THP-1 cells, please?
result: -1.51

query: Recorded log10 of IC50 for COC[C@@H]1CN(CC2CN(c3cc(F)c([C@H]4CCC(=O)NC4=O)c(F)c3)C2)CCN1[C@H]1CC[C@H](n2cc3cc(NC(=O)c4ccc5cc(C#N)cnn45)c(C(C)(C)O)cc3n2)CC1 with TNF-α production in THP-1 cells, please?
result: -1.89

query: Recorded log10 of IC50 for COC[C@@H]1CN([C@H]2CC[C@H](n3cc4cc(NC(=O)c5ccc6cc(C#N)cnn56)c(C(C)(C)O)cc4n3)CC2)CCN1C1CCN(c2cc(F)c([C@H]3CCC(=O)NC3=O)c(F)c2)CC1 with TNF-α production in THP-1 cells, please?
result: -1.41

query: Recorded log10 of IC50 for COC[C@@H]1CN([C@H]2CC[C@H](n3cc4cc(NC(=O)c5ccc6cc(C#N)cnn56)c(C(C)(C)O)cc4n3)CC2)CCN1C(=O)C1CN(c2cc(F)c([C@H]3CCC(=O)NC3=O)c(F)c2)C1 with TNF-α production in THP-1 cells, please?
result: -1.54

query: Recorded log10 of IC50 for CC(C)(O)c1cc2nn([C@H]3CC[C@H](N4CCN(C(=O)C5CN(c6cc(F)c([C@H]7CCC(=O)NC7=O)c(F)c6)C5)CC4)CC3)cc2cc1NC(=O)c1ccc2cc(C#N)cnn12 with TNF-α production in THP-1 cells, please?
result: -2.19

query: Recorded log10 of IC50 for CC(C)(O)c1cc2nc(C3CCN(C4CCN(C(=O)C5CN(c6cc(F)c([C@H]7CCC(=O)NC7=O)c(F)c6)C5)CC4)CC3)cn2cc1NC(=O)c1cccc(C(F)(F)F)n1 with TNF-α production in THP-1 cells, please?
result: -1.37

query: Recorded log10 of IC50 for CC(C)(O)c1cc2nn([C@H]3CC[C@H](N4CCN(CCc5cc(F)c([C@H]6CCC(=O)NC6=O)c(F)c5)CC4)CC3)cc2cc1NC(=O)c1ccc2cc(C#N)cnn12 with TNF-α production in THP-1 cells, please?
result: -1.48

query: Recorded log10 of IC50 for O=C1CC[C@H](c2c(F)cc(N3CC[C@@H](C(=O)N4CCN([C@H]5CC[C@H](n6cc(NC(=O)c7coc(-c8ccnc(NCC(F)(F)F)c8)n7)c(C(F)F)n6)CC5)CC4)C3)cc2F)C(=O)N1 with TNF-α production in THP-1 cells, please?
result: -1.47

query: Recorded log10 of IC50 for [2H]C([2H])([2H])Oc1cc2nn([C@H]3CC[C@H](N4CCN(C(=O)C5CN(c6cc(F)c([C@H]7CCC(=O)NC7=O)c(F)c6)C5)CC4)CC3)cc2cc1NC(=O)c1cccc(C(F)(F)F)n1 with TNF-α production in THP-1 cells, please?
result: -1.14

query: Recorded log10 of IC50 for C[C@@H]1CN(C2CCN(c3cc(F)c([C@H]4CCC(=O)NC4=O)c(F)c3)CC2)CCN1[C@H]1CC[C@H](n2cc3cc(NC(=O)c4ccc5cc(C#N)cnn45)c(C(C)(C)O)cc3n2)CC1 with TNF-α production in THP-1 cells, please?
result: -1.38

query: Recorded log10 of IC50 for [2H]C([2H])([2H])Oc1cc2nn([C@H]3CC[C@H](N4CCN(C(=O)C5CN(c6cc(F)c(N7CCC(=O)NC7=O)c(F)c6)C5)CC4)CC3)cc2cc1NC(=O)c1cccc(C(F)(F)F)n1 with TNF-α production in THP-1 cells, please?
result: -1.16

query: Recorded log10 of IC50 for CC(C)(O)c1cc2nn(C34CCC(N5CCN(C6CCN(c7cc(F)c([C@H]8CCC(=O)NC8=O)c(F)c7)CC6)CC5)(CC3)CC4)cc2cc1NC(=O)c1ccc2cc(C#N)cnn12 with TNF-α production in THP-1 cells, please?
result: -2.00

query: Recorded log10 of IC50 for CC(C)(O)c1cc2nn([C@H]3CC[C@H](N4CCN([C@H]5C[C@H](c6cc(F)c([C@H]7CCC(=O)NC7=O)c(F)c6)C5)CC4)CC3)cc2cc1NC(=O)c1ccc2cc(C#N)cnn12 with TNF-α production in THP-1 cells, please?
result: -1.85
